Measured values drawn from patent US8580794B2 for this set.

- Tested on: RS4;11 cells
- EXPERIMENT NOTES: RS4;11 Cell Viability Assay (CellTiter Glo);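 note: RS4,11 acute lymphoblastic leukemia cells, viability as percent of untreated control cells, EC50 for loss of viable cells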
- Format: cell-based
- ASSAY CONDITIONS: Homo sapiens, RS4-11, 48 h, 50,000 cells per well, 10% human serum

[
  {
    "COMPOUND": "CC1(C(=O)O)CCC(c2ccc(Cl)cc2)=C(CN2CCN(c3ccc(C(=O)NS(=O)(=O)c4ccc(NCC5CCOCC5)c([N+](=O)[O-])c4)c(Oc4cnc5[nH]ccc5c4)c3)CC2)C1 (stereo not drawn)",
    "TARGET OR TEST SYSTEM": "RS4;11 cells",
    "EC50": "> 1000 nM"
  },
  {
    "COMPOUND": "COCC1CCN(C(=O)Nc2ccc(S(=O)(=O)NC(=O)c3ccc(N4CCN(CC5=C(c6ccc(Cl)cc6)CC(C)(C)CC5)CC4)cc3Oc3cnc4[nH]ccc4c3)cc2Cl)CC1",
    "TARGET OR TEST SYSTEM": "RS4;11 cells",
    "EC50": "> 1000 nM"
  },
  {
    "COMPOUND": "COC1CCN(C(=O)Nc2ccc(S(=O)(=O)NC(=O)c3ccc(N4CCN(CC5=C(c6ccc(Cl)cc6)CC(C)(C)CC5)CC4)cc3Oc3cnc4[nH]ccc4c3)cc2Cl)CC1",
    "TARGET OR TEST SYSTEM": "RS4;11 cells",
    "EC50": "> 1000 nM"
  }
]

----------
# key: entry, value: pKi
- TARGET OR TEST SYSTEM: GST-Bc1-2 (Homo sapiens, UniProt P10415)
- Sequence (P10415 whole entry): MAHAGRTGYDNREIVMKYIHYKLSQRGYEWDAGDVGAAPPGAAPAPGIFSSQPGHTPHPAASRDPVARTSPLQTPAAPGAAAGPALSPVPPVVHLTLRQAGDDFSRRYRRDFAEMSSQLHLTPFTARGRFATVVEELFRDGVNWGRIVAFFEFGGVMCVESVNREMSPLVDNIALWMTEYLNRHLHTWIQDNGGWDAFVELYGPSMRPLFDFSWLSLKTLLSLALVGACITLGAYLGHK
- EXPERIMENT NOTES: Time Resolved-Fluorescence Resonance Energy Transfer (TR-FRET) Bcl-2 binding assay with F-Bak peptide probe
- ASSAY CONDITIONS: GST-Bcl-2 1 nM, F-Bak probe 100 nM, Tb-anti-GST 1 nM; '<' = below limit of detection; read-out: TR-FRET Bcl-2 Binding Ki
pKi: −log10 of the molar value.

[
  {
    "SMILES CODE": "CC1(C)CCC(CN2CCN(c3ccc(C(=O)NS(=O)(=O)c4ccc(N5CCC(N6CCOCC6)CC5)c([N+](=O)[O-])c4)c(Oc4cnc5[nH]ccc5c4)c3)CC2)=C(c2ccc(Cl)cc2)C1",
    "BOUND OPERATOR": "=",
    "pKi": 10.28
  },
  {
    "SMILES CODE": "CC1(C)CCC(CN2CCN(c3ccc(C(=O)NS(=O)(=O)c4cnc5c(c4)c(Cl)cn5CC4CCOCC4)c(Oc4cnc5[nH]ccc5c4)c3)CC2)=C(c2ccc(Cl)cc2)C1",
    "BOUND OPERATOR": "=",
    "pKi": 9.11
  },
  {
    "SMILES CODE": "CC(C)N1CCC2(CCC(c3ccc(Cl)cc3)=C(CN3CCN(c4ccc(C(=O)NS(=O)(=O)c5cnc(OCC6CCOCC6)c(Cl)c5)c(Oc5cnc6[nH]ccc6c5)c4)CC3)C2)CC1",
    "BOUND OPERATOR": ">",
    "pKi": 11.00
  }
]

----------
- TARGET OR TEST SYSTEM: GST-Bc1-2 (Homo sapiens)
- EXPERIMENT NOTES: Time Resolved-Fluorescence Resonance Energy Transfer (TR-FRET) Bcl-2 binding assay with F-Bak peptide probe
- ASSAY CONDITIONS: GST-Bcl-2 1 nM, F-Bak probe 100 nM, Tb-anti-GST 1 nM; '<' = below limit of detection; read-out: TR-FRET Bcl-2 Binding Ki
METRIC: Ki

[
  {
    "COMPOUND": "CC1(C)CCC(CN2CCN(c3ccc(C(=O)NS(=O)(=O)c4ccc(OCC5(F)CCN(C6CCOC6)CC5)c([N+](=O)[O-])c4)c(Oc4cnc5[nH]ccc5c4)c3)CC2)=C(c2ccc(Cl)cc2)C1 (stereo not drawn) [Example 193]",
    "TARGET OR TEST SYSTEM": "GST-Bc1-2 (Homo sapiens)",
    "METRIC": "Ki",
    "REPORTED RESULT": "< 0.01 nM"
  },
  {
    "COMPOUND": "CO[C@H]1CC[C@@H](COc2ccc(S(=O)(=O)NC(=O)c3ccc(N4CCN(CC5=C(c6ccc(Cl)cc6)CC(C)(C)CC5)CC4)cc3Oc3cnc4[nH]ccc4c3)cc2[N+](=O)[O-])CC1 [Example 121]",
    "TARGET OR TEST SYSTEM": "GST-Bc1-2 (Homo sapiens)",
    "METRIC": "Ki",
    "REPORTED RESULT": "< 0.01 nM"
  },
  {
    "COMPOUND": "CC1(C)CCC(CN2CCN(c3ccc(C(=O)NS(=O)(=O)c4ccc(NC5CCN(S(C)(=O)=O)CC5)c([N+](=O)[O-])c4)c(Oc4cnc5[nH]ccc5c4)c3)CC2)=C(c2ccc(Cl)cc2)C1 [Example 80]",
    "TARGET OR TEST SYSTEM": "GST-Bc1-2 (Homo sapiens)",
    "METRIC": "Ki",
    "REPORTED RESULT": "< 0.01 nM"
  }
]

----------
- TARGET OR TEST SYSTEM: GST-Bc1-2 (Homo sapiens)
- EXPERIMENT NOTES: Time Resolved-Fluorescence Resonance Energy Transfer (TR-FRET) Bcl-2 binding assay with F-Bak peptide probe
- ASSAY CONDITIONS: GST-Bcl-2 1 nM, F-Bak probe 100 nM, Tb-anti-GST 1 nM; '<' = below limit of detection; read-out: TR-FRET Bcl-2 Binding Ki
pKi: −log10 of the molar value.
METRIC: pKi

[
  {
    "SMILES CODE": "CC1(C)CCC(CN2CCN(c3ccc(C(=O)NS(=O)(=O)c4cnc(NCC5CCOCC5)c([N+](=O)[O-])c4)c(Oc4cnc5[nH]ccc5c4)c3)CC2)=C(c2ccc(Cl)cc2)C1",
    "TARGET OR TEST SYSTEM": "GST-Bc1-2 (Homo sapiens)",
    "REPORTED RESULT": "> 11.00"
  },
  {
    "SMILES CODE": "CC1(C)CCC(CN2CCN(c3ccc(C(=O)NS(=O)(=O)c4ccc(NCCCN(C5CC5)C5COC5)c([N+](=O)[O-])c4)c(Oc4cnc5[nH]ccc5c4)c3)CC2)=C(c2ccc(Cl)cc2)C1",
    "TARGET OR TEST SYSTEM": "GST-Bc1-2 (Homo sapiens)",
    "REPORTED RESULT": "> 11.00"
  },
  {
    "SMILES CODE": "CC1(C)CCC(CN2CCN(c3ccc(C(=O)NS(=O)(=O)c4ccc(NCC5CCN(C(CF)CF)CC5)c([N+](=O)[O-])c4)c(Oc4cnc5[nH]ccc5c4)c3)CC2)=C(c2ccc(Cl)cc2)C1",
    "TARGET OR TEST SYSTEM": "GST-Bc1-2 (Homo sapiens)",
    "REPORTED RESULT": "> 11.00"
  }
]

----------
- TARGET OR TEST SYSTEM: GST-Bc1-2 (Homo sapiens)
- EXPERIMENT NOTES: Time Resolved-Fluorescence Resonance Energy Transfer (TR-FRET) Bcl-2 binding assay with F-Bak peptide probe
- ASSAY CONDITIONS: GST-Bcl-2 1 nM, F-Bak probe 100 nM, Tb-anti-GST 1 nM; '<' = below limit of detection; read-out: TR-FRET Bcl-2 Binding Ki
pKi: −log10 of the molar value.
METRIC: pKi

[
  {
    "MOLECULE": "CC1(C)CCC(CN2CCN(c3ccc(C(=O)NS(=O)(=O)c4ccc(N[C@H]5CC[C@H](N6CCN(C7CCOCC7)CC6)CC5)c([N+](=O)[O-])c4)c(Oc4cnc5[nH]ccc5c4)c3)CC2)=C(c2ccc(Cl)cc2)C1",
    "METRIC": "pKi",
    "REPORTED RESULT": "> 11.00"
  },
  {
    "MOLECULE": "CC1(C)CCC(CN2CCN(c3ccc(C(=O)NS(=O)(=O)c4ccc(NCC5CN(CCF)CCO5)c([N+](=O)[O-])c4)c(Oc4cnc5[nH]ccc5c4)c3)CC2)=C(c2ccc(Cl)cc2)C1 (stereo not drawn)",
    "METRIC": "pKi",
    "REPORTED RESULT": "> 11.00"
  },
  {
    "MOLECULE": "CN(C)CCCOc1ccc(CNc2ccc(S(=O)(=O)NC(=O)c3ccc(N4CCN(CC5=C(c6ccc(Cl)cc6)CC(C)(C)CC5)CC4)cc3Oc3cnc4[nH]ccc4c3)cc2[N+](=O)[O-])cc1",
    "METRIC": "pKi",
    "REPORTED RESULT": "> 11.00"
  }
]

----------
- TARGET OR TEST SYSTEM: GST-Bc1-2 (Homo sapiens)
- EXPERIMENT NOTES: Time Resolved-Fluorescence Resonance Energy Transfer (TR-FRET) Bcl-2 binding assay with F-Bak peptide probe
- ASSAY CONDITIONS: GST-Bcl-2 1 nM, F-Bak probe 100 nM, Tb-anti-GST 1 nM; '<' = below limit of detection; read-out: TR-FRET Bcl-2 Binding Ki
# key: entry, value: Ki
METRIC: Ki

[
  {
    "COMPOUND": "CC1(C)CCC(CN2CCN(c3ccc(C(=O)NS(=O)(=O)c4ccc(N[C@H]5CC[C@H](N(C6CC6)C6CC6)CC5)c([N+](=O)[O-])c4)c(Oc4cnc5[nH]ccc5c4)c3)CC2)=C(c2ccc(Cl)cc2)C1",
    "REPORTED RESULT": "< 0.01 nM"
  },
  {
    "COMPOUND": "CC1(C)CCC(CN2CCN(c3ccc(C(=O)NS(=O)(=O)c4ccc(NCC5(N)CCOCC5)c([N+](=O)[O-])c4)c(Oc4cnc5[nH]ccc5c4)c3)CC2)=C(c2ccc(Cl)cc2)C1",
    "REPORTED RESULT": "< 0.01 nM"
  },
  {
    "COMPOUND": "CC1(C)CCC(CN2CCN(c3ccc(C(=O)NS(=O)(=O)c4cnc(OCC5CCc6nccn6C5)c(Cl)c4)c(Oc4cnc5[nH]ccc5c4)c3)CC2)=C(c2ccc(Cl)cc2)C1 (stereo not shown)",
    "REPORTED RESULT": "< 0.01 nM"
  },
  {
    "COMPOUND": "CC1(C)CCC(CN2CCN(c3ccc(C(=O)NS(=O)(=O)c4ccc(NCC5CCCN(S(C)(=O)=O)C5)c([N+](=O)[O-])c4)c(Oc4cnc5[nH]ccc5c4)c3)CC2)=C(c2ccc(Cl)cc2)C1 (stereo not shown)",
    "REPORTED RESULT": "< 0.01 nM"
  },
  {
    "COMPOUND": "CC1(C)CCC(CN2CCN(c3ccc(C(=O)NS(=O)(=O)c4ccc(NCCCN(CC(F)(F)F)C5CC5)c([N+](=O)[O-])c4)c(Oc4cnc5[nH]ccc5c4)c3)CC2)=C(c2ccc(Cl)cc2)C1",
    "REPORTED RESULT": "0.141 nM"
  },
  {
    "COMPOUND": "CC1(C)CCC(CN2CCN(c3ccc(C(=O)NS(=O)(=O)c4ccc(N[C@H]5CCCN(C6CCOCC6)C5)c([N+](=O)[O-])c4)c(Oc4cnc5[nH]ccc5c4)c3)CC2)=C(c2ccc(Cl)cc2)C1",
    "REPORTED RESULT": "< 0.01 nM"
  },
  {
    "COMPOUND": "CC1(C)CCC(CN2CCN(c3ccc(C(=O)NS(=O)(=O)c4ccc(N[C@@H]5CCN(C(CF)CF)C5)c(S(=O)(=O)C(F)(F)F)c4)c(Oc4cnc5[nH]ccc5c4)c3)CC2)=C(c2ccc(Cl)cc2)C1",
    "REPORTED RESULT": "0.196 nM"
  }
]
